system: E. coli; experiment: Gram negative MIC protocol (OD600, LB, 24 h); settings: Escherichia coli, read-out: MIC E. coli delta-TolC LB Media, E. coli delta-TolC, LB media, OD600
Structures can show the parent of a compound that is named as a salt.
PARAMETER: MIC

| COMPOUND | MIC |
| --- | --- |
| CCCCCCNCc1ccccc1 [B6] | > 150 µM |
| COC(=O)Cn1ccc2cccc(CNC(C)CC3CCCCC3)c21 (stereo not shown) [B435, hydrochloride] | 150 µM |
| Fc1cc(CCNCc2ccccc2)c2c(c1)COCO2 [B21] | > 150 µM |
| CC(CNCc1ccccc1)N1CCc2ccccc2C1 (stereo not shown) [B130] | > 150 µM |
| C[C@H](CC1=CCCCC1)NCc1ccccc1 [B170] | > 300 µM |
| c1ccc(CNCCC2CC3CCC2O3)cc1 (stereo not shown) [B66] | > 150 µM |
| c1ccc(CNCCc2cccc3ccccc23)cc1 [B192] | 96 µM |
| CC(CC1CCCCC1)NCc1ccccc1CS(=O)(=O)N[C@@H](C)C(=O)O (stereo partly shown) [B454] | 91 µM |

Identify MIC associated with the compound CC(CC1CCCCC1)NCc1ccccc1OCc1ccccc1 (stereo not shown) [B409]
3 µM

Identify MIC associated with the compound c1ccc(CNCC2CC23CCCc2ccccc23)cc1 (stereo not shown) [B107]
> 150 µM

Identify MIC associated with the compound O=C1c2ccccc2CN1CCC1CCCCC1 [B419, 2-(2-cyclohexylethyl)isoindolin-1-one]
150 µM

Identify MIC associated with the compound CC(NCc1ccccc1)C1[C@H]2C[C@@H]3C[C@@H](C[C@H]1C3)C2 (stereo partly shown) [B191]
300 µM

Identify MIC associated with the compound c1ccc(CNC2CCc3cccc4cccc2c34)cc1 (stereo not shown) [B195]
300 µM

Identify MIC associated with the compound COc1ccc(CC(C)NCc2ccccc2)cn1 (stereo not shown) [B68]
> 150 µM

Identify MIC associated with the compound C1=CC2CCC1CC2CNCc1ccccc1 (stereo not shown) [B122]
> 150 µM

Identify MIC associated with the compound CC(Cc1ncccn1)NCc1ccccc1 (stereo not shown) [B82]
> 150 µM

Identify MIC associated with the compound CC1CCCC(CCNCc2ccccc2)C1 (stereo not shown) [B179]
230 µM

Identify MIC associated with the compound CN1CCC(CNCc2ccccc2)c2ccccc21 (stereo not shown) [B139]
> 150 µM

Identify MIC associated with the compound c1ccc(CNCC2CCCCCC2)cc1 [B99]
> 150 µM

---

Listing of entries alongside the reported MIC.
tested on: E. coli; assay: Gram negative MIC protocol (OD600, LB, 24 h); details: Escherichia coli, read-out: MIC E. coli delta-TolC LB Media, E. coli delta-TolC, LB media, OD600
Counter-ions that a name gives are not always drawn.
Quick note: give the figure in µM, leave out the unit.

Check out these entries, answers already filled in.
| COMPOUND | TEST_TARGET | UNIT_NAME | MIC |
| --- | --- | --- | --- |
| CC1CCCC(CCN2Cc3ccccc3CC2=O)C1 (stereo not shown) | E. coli | µM | 90 |
| CC(CC1CCCCC1)N1Cc2ccccc2OC1=O (stereo not shown) | E. coli | µM | 55 |
| CC(CC1CCCCC1)NCc1ccccc1CCC(N)=O (stereo not shown) [B399, trifluoroacetate] | E. coli | µM | 20 |

Identify MIC associated with the compound CC(CC1CCCCC1)NCc1ccccc1CCS(N)(=O)=O (stereo not shown)
4

Identify MIC associated with the compound O=C1Cc2ccccc2CN1CCC1=CCCCC1
150

Identify MIC associated with the compound CC(CC1CCCCC1)NCc1ccccc1CS(=O)(=O)NC(=O)NC1CCCCC1 (stereo not shown)
12

Identify MIC associated with the compound COCCNS(=O)(=O)Cc1ccccc1CNC(C)CC1CCCCC1 (stereo not shown)
4

Identify MIC associated with the compound CC(CC1CCCCC1)NCc1ccccc1OCCc1ccccc1F (stereo not shown)
2

Identify MIC associated with the compound CC(CC1CCCCC1)NCc1ccccc1CS(=O)(=O)N1CCN(C)CC1 (stereo not shown)
12

Identify MIC associated with the compound CC(NCc1ccccc1)C12C[C@H]3C[C@H](C1)C[C@@H](C2)C3 (stereo partly shown)
90

Identify MIC associated with the compound CC1(C)CCC2(CC2CNCc2ccccc2)c2ccccc21 (stereo not shown)
91

---

test system: E. coli; assay: Gram negative MIC protocol (OD600, LB, 24 h); details: Escherichia coli, read-out: MIC E. coli delta-TolC LB Media, E. coli delta-TolC, LB media, OD600
Counter-ions that a name gives are not always drawn.
PARAMETER: MIC (µM)
Quick note: give the figure in µM, leave out the unit.

Check out these entries, answers already filled in.
| COMPOUND | TEST_TARGET | UNIT_NAME | VALUE_MEASURED |
| --- | --- | --- | --- |
| C[C@@H](CC1=CCCCC1)NCc1ccccc1 [B171] | E. coli | µM | 19 |
| CC1CCC(CC(C)NCc2ccccc2OCc2ccccc2F)CC1 (stereo not drawn) [B465] | E. coli | µM | 7 |
| CC(CC1CCCCC1)NCc1ccccc1OC1C2CC3CC(C2)CC1C3 (stereo not drawn) [B404] | E. coli | µM | 7 |
| O=C1CCc2ccccc2CN1CCC1CCCCC1 [B425] | E. coli | µM | 33 |
| CC(CC1CCCCC1)NCc1ccccc1NC(=O)c1ccccc1F (stereo not drawn) [B398, hydrochloride] | E. coli | µM | 91 |

Identify MIC associated with the compound CC1CCC(NC(=O)NS(=O)(=O)Cc2ccccc2CNC(C)CC2CCCCC2)CC1 (stereo not drawn) [B450]
150

Identify MIC associated with the compound CC(CC1CCCCC1)NCc1ccccc1CS(=O)(=O)NCC(O)CO (stereo not drawn) [B431]
4

Identify MIC associated with the compound COC(=O)CCc1ccccc1CNC(C)CC1CCCCC1 (stereo not drawn) [B400, hydrochloride]
55

---

tested on: E. coli; assay: Gram negative MIC protocol (OD600, LB, 24 h); settings: Escherichia coli, read-out: MIC WT E. coli LB Media, wild-type E. coli, LB media, 24 h, OD600
Structures can show the parent of a compound that is named as a salt.
PARAMETER: MIC

Check out these entries, answers already filled in.
| COMPOUND | MIC |
| --- | --- |
| CC(C)NC(=O)COc1ccccc1CNC(C)CC1CCCCC1 (stereo not shown) [B358] | > 150 µM |
| c1ccc(CNCCC2CCCCN2)cc1 (stereo not shown) [B360] | > 150 µM |
| NC(=O)C(CC1CCCCC1)NCc1ccccc1 (stereo not shown) [B205, hydrochloride] | > 300 µM |

Now look at this entry.
Identify MIC associated with the compound CC(CC1CCCCC1)NCc1ccccc1NCc1ccccc1F (stereo not shown) [B397, dihydrochloride]
> 150 µM

---

tested on: E. coli; assay: Gram negative MIC protocol (OD600, LB, 24 h); conditions: Escherichia coli, read-out: MIC WT E. coli LB Media, wild-type E. coli, LB media, 24 h, OD600
PARAMETER: MIC

Check out these entries, answers already filled in.
| MOLECULE | MIC |
| --- | --- |
| CC(CC1CCCCC1)NCc1ccccc1OCc1nccs1 (stereo not shown) [B240] | > 150 µM |
| CCN(CC)CCOc1ccccc1CNC(C)CC1CCCCC1 (stereo not shown) [B249] | > 150 µM |
| CC(CC1CCCCC1)NCc1ccccc1OCC(=O)N1CCOC(C)C1 (stereo not shown) [B316] | > 150 µM |

Now look at this entry.
Identify MIC associated with the molecule CCc1noc(COc2ccccc2CNC(C)CC2CCCCC2)n1 (stereo not shown) [B324]
> 150 µM

---

Listing of entries alongside the reported MIC.
system: E. coli; test: Gram negative MIC protocol (OD600, LB, 24 h); conditions: Escherichia coli, read-out: MIC WT E. coli LB Media, wild-type E. coli, LB media, 24 h, OD600

Check out these entries, answers already filled in.
| COMPOUND | VALUE_MEASURED |
| --- | --- |
| CC(CC1CCCCC1)NCc1ccccc1OCC(=O)N(C)C1CCCCC1 (stereo not drawn) | > 150 µM |
| COC(=O)CCCOc1ccccc1CNC(C)CC1CCCCC1 (stereo not drawn) | > 150 µM |
| CC(CC1CCCCC1)NCc1ccccc1OCC(=O)N(C)C (stereo not drawn) | > 150 µM |
| c1ccc(CNCCC23CC4CC(CC(C4)C2)C3)cc1 | > 300 µM |
| CN1CC(COc2ccccc2CNCCC2=CCCCC2)OC1=O (stereo not drawn) | > 150 µM |

Identify MIC associated with the compound CCOC(COc1ccccc1CNC(C)CC1CCCCC1)OCC (stereo not drawn)
> 150 µM

Identify MIC associated with the compound CC(CC1CCCCC1)NCc1ccccc1OCc1nc(C(C)C)no1 (stereo not drawn)
> 150 µM

Identify MIC associated with the compound CC(CC1CCCCC1)NCc1ccccc1OCCCOCC(F)(F)F (stereo not drawn)
> 150 µM
